Tested on: corn
experiment-summary: Phytotoxicity test for upland field crops (foliar treatment test)
Format: in vivo
condition-summary: 50 g ai/ha, Corn (14 days after treatment)
result-type: Foliar treatment phytotoxicity, Corn
Please give only the number in your answer, with no unit.

{"columns": ["molecule", "measured-on", "Foliar treatment phytotoxicity, Corn"],
 "data": [
  ["Cn1nnc(COCc2nc(C(F)(F)F)ccc2C(=O)N(C(=O)c2ccccc2)c2nnnn2C)n1 [Compound No. 2-68]", "corn", 4],
  ["Cn1nnnc1NC(=O)c1ccc(C(F)(F)F)nc1OCc1nnnn1C(F)F [Compound No. 1-26]", "corn", 0],
  ["Cn1nnnc1NC(=O)c1ccc(C(F)(F)F)nc1COCc1nc(C(F)F)n(C)n1 [Compound No. 2-123]", "corn", 2],
  ["Cn1nnc(CSCc2nc(C(F)(F)F)ccc2C(=O)N(C(=O)c2ccccc2)c2nnnn2C)n1 [Compound No. 2-109]", "corn", 0],
  ["Cn1nnc(COCc2nc(C(F)(F)C(F)(F)F)ccc2C(=O)Nc2nnnn2C)n1 [Compound No. 2-81]", "corn", 1],
  ["Cn1nnc(CSCc2nc(C(F)(F)F)ccc2C(=O)N(c2nnnn2C)S(C)(=O)=O)n1 [Compound No. 2-110]", "corn", 0],
  ["Cn1nnc(COCc2nc(C(F)(F)Cl)ccc2C(=O)Nc2nnnn2C)n1 [Compound No. 2-78]", "corn", 1]
]}

Could you now consider this next molecule?
Recorded Foliar treatment phytotoxicity, Corn for CCCn1nnnc1NC(=O)c1ccc(C(F)(F)F)nc1COCc1nnn(CC)n1 [Compound No. 2-89] , please?
0

---

Test system: soybean
experiment-summary: Phytotoxicity test for field crops (soil treatment test)
Assay type: in vivo
condition-summary: 50 g ai/ha; Soybean (10 days after treatment)
Experimental: Experimental Example 4: Phytotoxicity Test for Field Crops (Soil Treatment Test) Soil treatment was performed for sown crops and weeds in a square plastic pot having a surface area of 50 cm^2 filled with sterilized horticultural soil (pH 6.1, organic material 1.0%, clay 21%, silt 17%, sand 52%). As a fertilizer per pot, 0.5 g of horticultural mixed fertilizer (N:P:K=17:21:17) was treated by mixing with soil. Five kinds of crops such as rice, wheat, corn, soybean, and cotton were sown in each pot. […]
result-type: Soil treatment phytotoxicity, Soybean

The examples below pair each entry with its known result.
{"columns": ["smiles-input", "experimental-result"],
 "data": [
  ["CN(Cc1nnn(C)n1)c1nc(C(F)(F)F)ccc1C(=O)Nc1nnnn1C", 6],
  ["Cn1nc(COCc2nc(C(F)(F)F)ccc2C(=O)Nc2nnnn2C)nc1Cl", 0],
  ["Cn1nnnc1COc1nc(C(F)(F)F)ccc1C(=S)Nc1nnnn1C", 0],
  ["CON(Cc1nnn(C)n1)Cc1nc(C(F)(F)F)ccc1C(=O)Nc1nnnn1C", 0],
  ["Cn1nnc(COCc2nc(C(F)(F)F)ccc2C(=O)N(C(=O)c2ccccc2)c2nnnn2C)n1", 0]
]}

Recorded Soil treatment phytotoxicity, Soybean for "CON(Cc1nnn(C)n1)c1nc(C(F)(F)F)ccc1C(=O)Nc1nnnn1C" , please?
7

Queued: "Cn1nc(COCc2nc(C(F)(F)F)ccc2C(=O)Nc2nnnn2C)nc1C#N"
0

Queued: "Cn1nnc(COCc2nc(C(F)F)ccc2C(=O)Nc2nnnn2C)n1"
0

---

System: indian jointvetch
experiment-summary: Herbicidal activity test against upland field weeds (foliar treatment test)
Type: in vivo
condition-summary: 50 g ai/ha, scale 0-100
Description: […]
# pest or weed control at 50 g/ha values compiled below
State the answer as a number, implicitly in %.

{"columns": ["molecule", "measured-on", "units-label", "pest or weed control at 50 g/ha"],
 "data": [
  ["CCn1nnc(COCc2nc(C(F)(F)F)ccc2C(=O)Nc2nnnn2CC)n1 [Compound No. 2-88]", "indian jointvetch", "%", 60],
  ["CN(C)c1nc(COCc2nc(C(F)(F)F)ccc2C(=O)Nc2nnnn2C)nn1C [Compound No. 2-133]", "indian jointvetch", "%", 95],
  ["CON(Cc1nnn(C)n1)Cc1nc(C(F)(F)F)ccc1C(=O)Nc1nnnn1C [Compound No. 2-97]", "indian jointvetch", "%", 95],
  ["Cn1nnc(COCc2nc(C(F)(F)Cl)ccc2C(=O)Nc2nnnn2C)n1 [Compound No. 2-78]", "indian jointvetch", "%", 80],
  ["Cn1ncnc1COc1nc(C(F)(F)F)ccc1C(=O)Nc1nnnn1C [Compound No. 1-45]", "indian jointvetch", "%", 70]
]}

Recorded pest or weed control at 50 g/ha for Cc1nc(COCc2nc(C(F)(F)F)ccc2C(=O)Nc2nnnn2C)nn1C [Compound No. 2-116] , please?
40

Queued: Cn1nc(COCc2nc(C(F)(F)F)ccc2C(=O)Nc2nnnn2C)nc1Br [Compound No. 2-136]
20

Queued: CCN(Cc1nnn(C)n1)Cc1nc(C(F)(F)F)ccc1C(=O)Nc1nnnn1C [Compound No. 2-94]
60

---

# Foliar treatment phytotoxicity, Rice values compiled below
System: rice
experiment-summary: Phytotoxicity test for upland field crops (foliar treatment test)
Type: in vivo
condition-summary: 50 g ai/ha, Rice (14 days after treatment)
Please give only the number in your answer, with no unit.

{"columns": ["smiles-input", "Foliar treatment phytotoxicity, Rice"],
 "data": [
  ["Cn1nc(COCc2nc(C(F)(F)F)ccc2C(=O)Nc2nnnn2C)nc1C#N", 6],
  ["Cc1nc(COCc2nc(C(F)(F)F)ccc2C(=O)Nc2nnnn2C)nn1C", 5],
  ["Cn1nnc(COCc2nc(C(F)(F)F)ccc2C(=O)Nc2nnnn2C)n1", 4]
]}

Recorded Foliar treatment phytotoxicity, Rice for "Cn1nnc(COCc2nc(C(F)(F)C(F)(F)F)ccc2C(=O)Nc2nnnn2C)n1" , please?
3

Queued: "CON(Cc1nnn(C)n1)Cc1nc(C(F)(F)F)ccc1C(=O)Nc1nnnn1C"
8

Queued: "Cn1nnc(COCc2nc(C(F)(F)F)ccc2C(=O)N(c2nnnn2C)S(C)(=O)=O)n1"
7

Queued: "Cn1nnc(COCc2nc(C(F)(F)Cl)ccc2C(=O)Nc2nnnn2C)n1"
4

Queued: "Cn1nnc(CSCc2nc(C(F)(F)F)ccc2C(=O)Nc2nnnn2C)n1"
3

---

Tested on: wheat
experiment-summary: Phytotoxicity test for upland field crops (foliar treatment test)
Format: in vivo
Set-up: key: 0 (no harm); 9 (complete withered)
condition-summary: 50 g ai/ha, Wheat (7 days after treatment)
result-type: Foliar treatment phytotoxicity, Wheat
Please give only the number in your answer, with no unit.

The examples below pair each entry with its known result.
{"columns": ["molecule", "Foliar treatment phytotoxicity, Wheat"],
 "data": [
  ["COC(=O)OC(C)N(C(=O)c1ccc(C(F)(F)F)nc1COCc1ncn(C)n1)c1nnnn1C (stereo not shown)", 0],
  ["CON(Cc1nnn(C)n1)Cc1nc(C(F)(F)F)ccc1C(=O)Nc1nnnn1C", 0],
  ["Cn1nnc(CSCc2nc(C(F)(F)F)ccc2C(=O)N(C(=O)c2ccccc2)c2nnnn2C)n1", 2]
]}

Could you now consider this next molecule?
Recorded Foliar treatment phytotoxicity, Wheat for "Cn1nc(COCc2nc(C(F)(F)F)ccc2C(=O)Nc2nnnn2C)nc1C#N" , please?
0

---

# Soil treatment phytotoxicity, Corn values compiled below
Tested on: corn
experiment-summary: Phytotoxicity test for field crops (soil treatment test)
Format: in vivo
Set-up: key: 0 (no harm); 9 (complete withered)
condition-summary: 100 g ai/ha; Corn (20 days after treatment)

The examples below pair each entry with its known result.
{"columns": ["compound", "measured-on", "Soil treatment phytotoxicity, Corn"],
 "data": [
  ["CCOC(=O)OC(C)n1nnn(C)c1=NC(=O)c1ccc(C(F)(F)F)nc1CSCc1nnn(C)n1 (stereo not drawn) [Compound No. 4-10]", "corn", 0],
  ["Cn1nnnc1COCc1nc(C(F)(F)F)ccc1C(=O)Nc1nnnn1C [Compound No. 1-61]", "corn", 0]
]}

Could you now consider this next compound?
State its Soil treatment phytotoxicity, Corn on corn: Cn1nnc(CSCc2nc(C(F)F)ccc2C(=O)Nc2nnnn2C)n1 [Compound No. 2-108]
0

---

System: wheat
experiment-summary: Phytotoxicity test for upland field crops (foliar treatment test)
Type: in vivo
Set-up: key: 0 (no harm); 9 (complete withered)
condition-summary: 100 g ai/ha, Wheat (14 days after treatment)
# Foliar treatment phytotoxicity, Wheat values compiled below
Please give only the number in your answer, with no unit.

{"columns": ["compound", "experimental-result"],
 "data": [
  ["C=CCn1nnnc1NC(=O)c1ccc(C(F)(F)F)nc1COCc1nc(C(F)F)n(C)n1", 0],
  ["C=Cc1nc(COCc2nc(C(F)(F)F)ccc2C(=O)Nc2nnnn2C)nn1C", 0],
  ["C=CCn1nnnc1NC(=O)c1ccc(C(F)(F)F)nc1COCc1nc(C(F)(F)F)n(C)n1", 0],
  ["Cn1nnc(COCc2nc(C(F)(F)C(F)(F)F)ccc2C(=O)Nc2nnnn2C)n1", 0],
  ["Cn1nc(COCc2nc(C(F)(F)F)ccc2C(=O)Nc2nnnn2C)nc1I", 0]
]}

Recorded Foliar treatment phytotoxicity, Wheat for "Cc1nc(COCc2nc(C(F)(F)F)ccc2C(=S)Nc2nnnn2C)nn1C" , please?
0

Queued: "CCn1nnc(COCc2nc(C(F)(F)F)ccc2C(=O)Nc2nnnn2C)n1"
0

Queued: "CCCn1nnnc1NC(=O)c1ccc(C(F)(F)F)nc1COCc1nc(C(F)F)n(C)n1"
1

Queued: COC(=O)OC(C)N(C(=O)c1ccc(C(F)(F)F)nc1CSCc1nnn(C)n1)c1nnnn1C (stereo not shown)
0

Where do these numbers come from? They come from patent US12495798B2.
